All figures here come from patent US20240425478A1.

# target.or.test.system: Cyclin Dependent Kinase 2/Cyclin E1 (CDK2-cycE1) (Homo sapiens)
# Construct: purchased ProQinase 0050-0055-1
# assay.comment: CDK2-cycE1 TR-FRET (LANCE) enzyme assay
# Assay type: biochemical
# condition.summary: Table R, in brackets after CDK2 Ki
readout.type: CDK2 Ki fold change in potency versus Comparator D (fold)
Quick reminder: number only, in fold, skip the unit.

{"columns": ["compound", "unit.symbol", "val"],
 "data": [
  ["Cc1ccncc1Nc1cc([C@H]2CC[C@@H](OC(=O)NC(C)(C)C)C2)[nH]n1 [Example 4A]", "fold", 1]
]}

Input: Form field - read-out: CDK2 Ki fold change in potency versus Comparator D; system: Cyclin Dependent Kinase 2/Cyclin E1 (CDK2-cycE1) (Homo sapiens); submitted item: CC(C)(C)NC(=O)O[C@@H]1CC[C@H](c2cc(Nc3ncccn3)n[nH]2)C1 [Example 4J]
Output: 1.1

Input: Please do the same for CC(C)(C)NC(=O)O[C@@H]1CC[C@H](c2cc(Nc3cccnn3)n[nH]2)C1 [Example 4I] as well.
Output: 1.1

Input: Please do the same for Cc1cc(Nc2cc([C@H]3CC[C@@H](OC(=O)NC(C)(C)C)C3)[nH]n2)nn(C)c1=O [Example 4D] as well.
Output: 27

====

# target.or.test.system: Cyclin Dependent Kinase 1/Cyclin A2 (CDK1-cycA2) (Homo sapiens, UniProt P06493)
# Construct: purchased ProQinase 0134-0054-1
# Sequence (P06493 whole entry): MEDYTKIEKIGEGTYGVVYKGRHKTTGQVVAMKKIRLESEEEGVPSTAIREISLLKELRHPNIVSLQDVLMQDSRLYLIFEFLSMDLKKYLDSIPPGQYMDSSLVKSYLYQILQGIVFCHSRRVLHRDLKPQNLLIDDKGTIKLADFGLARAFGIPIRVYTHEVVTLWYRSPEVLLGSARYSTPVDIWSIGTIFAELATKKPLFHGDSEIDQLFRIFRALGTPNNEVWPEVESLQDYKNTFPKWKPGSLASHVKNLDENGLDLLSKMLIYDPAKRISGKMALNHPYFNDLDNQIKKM
# Sequence (P20248 whole entry partner): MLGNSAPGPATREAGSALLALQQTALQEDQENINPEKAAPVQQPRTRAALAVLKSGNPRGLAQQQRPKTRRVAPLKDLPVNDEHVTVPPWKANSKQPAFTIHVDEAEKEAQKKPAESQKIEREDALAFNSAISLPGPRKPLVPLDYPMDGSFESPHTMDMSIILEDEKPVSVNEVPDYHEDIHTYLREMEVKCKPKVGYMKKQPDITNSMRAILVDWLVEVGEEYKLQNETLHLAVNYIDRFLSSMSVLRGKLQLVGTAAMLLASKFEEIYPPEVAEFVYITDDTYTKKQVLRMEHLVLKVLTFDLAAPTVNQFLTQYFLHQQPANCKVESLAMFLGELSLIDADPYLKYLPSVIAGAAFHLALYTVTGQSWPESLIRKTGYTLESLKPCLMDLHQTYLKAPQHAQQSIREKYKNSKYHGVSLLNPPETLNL
# assay.comment: CDK1-cycA2 TR-FRET (Lance) enzyme assay
# Assay type: biochemical
# condition.summary: Table O, enzymatic assay
pKi: −log10 of the molar value.
Would you please tag the item condition met when its pKi is 7 or above, and condition not met when it is below?

{"columns": ["test.smiles", "group.label"],
 "data": [
  ["Cc1cc(=O)n(C)cc1Nc1cc([C@H]2CC[C@@H](OC(=O)NC(C)C)C2)[nH]n1", "condition not met"],
  ["Cc1nccc(Nc2cc([C@H]3CC[C@@H](OC(=O)NC(C)C)C3)[nH]n2)n1", "condition met"],
  ["CC(C)NC(=O)O[C@@H]1CC[C@H](c2cc(Nc3ccc(-n4ccnc4)nc3)n[nH]2)C1", "condition not met"]
]}

Moving on to another compound below.
Input: In plain terms: is recorded pKi at least 7 for O=C(NC12CC(C1)C2)O[C@@H]1CC[C@H](c2cc(Nc3cccnn3)n[nH]2)C1 ?
Output: condition met

====

Reported FS CDK4/CDK2 values are given for each entry in this list.
# target.or.test.system: Cyclin Dependent Kinase 2/Cyclin E1 (CDK2-cycE1) (Homo sapiens)
# Construct: purchased ProQinase 0050-0055-1
# assay.comment: CDK2-cycE1 TR-FRET (LANCE) enzyme assay
# Type: biochemical
# condition.summary: Table O, fold selectivity, enzymatic CDK4 Ki over CDK2 Ki
Give the value as a plain number.

Input: Reported FS CDK4/CDK2 for CCn1nc(Nc2cc([C@H]3CC[C@@H](OC(=O)NC(C)C)C3)[nH]n2)ccc1=O : what is it?
Output: 490

====

Reported CDK2 Ki fold change in potency versus Comparator E values are given for each entry in this list.
# target.or.test.system: Cyclin Dependent Kinase 2/Cyclin E1 (CDK2-cycE1) (Homo sapiens)
# Construct: purchased ProQinase 0050-0055-1
# assay.comment: CDK2-cycE1 TR-FRET (LANCE) enzyme assay
# Assay type: biochemical
# condition.summary: Table S, in brackets after CDK2 Ki
# Description: Cyclin Dependent Kinase 1/Cyclin A2 (CDK1-cycA2), Cyclin Dependent Kinase 2/Cyclin E1 (CDK2-cycE1), Cyclin Dependent Kinase 4/Cyclin D3 (CDK4-cycD3) and Cyclin Dependent Kinase 6/Cyclin D3 (CDK6-cycD3) enzyme assays were carried out as described below. […] An Echo acoustic dispenser is used to create dose responses of compound dissolved in DMSO into a 384-well microplate. […] Signal is a ratio of the Acceptor and Donor fluorescence. Inhibition constants are calculated via the Morrison equation. […]
Quick reminder: number only, in fold, skip the unit.

{"columns": ["molecule", "target.or.test.system", "unit.symbol", "val"],
 "data": [
  ["Cc1ccncc1Nc1cc([C@H]2CC[C@@H](OC(=O)NC(C)(C)C)C2)[nH]n1 [Example 4A]", "Cyclin Dependent Kinase 2/Cyclin E1 (CDK2-cycE1) (Homo sapiens)", "fold", 0.2]
]}

Input: Form field - read-out: CDK2 Ki fold change in potency versus Comparator E; system: Cyclin Dependent Kinase 2/Cyclin E1 (CDK2-cycE1) (Homo sapiens); submitted item: CNC(=O)c1ccc(Nc2cc([C@H]3CC[C@@H](OC(=O)NC(C)(C)C)C3)[nH]n2)nc1 [Example 4E]
Output: 0.3

Input: Please do the same for CC(C)NC(=O)O[C@@H]1CC[C@H](c2cc(Nc3cccnc3)n[nH]2)C1 [Example 2A] as well.
Output: 0.3

Input: Please do the same for CC(C)(C)NC(=O)O[C@@H]1CC[C@H](c2cc(Nc3ccnnc3)n[nH]2)C1 [Example 4K] as well.
Output: 1.2

Input: Please do the same for Cc1ccc(Nc2cc([C@H]3CC[C@@H](OC(=O)NC(C)(C)C)C3)[nH]n2)cn1 [Example 4B] as well.
Output: 1

Input: Please do the same for Cc1cc(Nc2cc([C@H]3CC[C@@H](OC(=O)NC(C)(C)C)C3)[nH]n2)nn(C)c1=O [Example 4D] as well.
Output: 5.2

Input: Please do the same for CC(C)(C)NC(=O)O[C@@H]1CC[C@H](c2cc(Nc3ncccn3)n[nH]2)C1 [Example 4J] as well.
Output: 0.2

Input: Please do the same for Cc1ncccc1Nc1cc([C@H]2CC[C@@H](OC(=O)NC(C)(C)C)C2)[nH]n1 [Example 4] as well.
Output: 2.4
